assayProcedure: Intramuscular pharmacokinetic study of bulk compound 1 and chiral isomers
Assay type: in vivo, male Sprague Dawley (SD) rats
testConditions: male, Sprague-Dawley, rat, plasma; IM 20 mg/kg, mean ± S.D., n = 4; read-out: Tmax
Protocol: In vivo pharmacokinetic study was performed in male Sprague Dawley (SD) rats (n=4). Intramuscular (IM) formulation of bulk of compound 1 as well as chiral isomer-1 and chiral isomer-2 was prepared by dissolving accurately weighed quantity of compound 1 (20 mg) in 1 mL of olive oil followed by vortexing for 2 min and sterilize through syringe filter. […]
recordedEndpoint: Tmax (h)

P: CCOC(=O)C1N=C1CCc1ccc(OC)cc1 (racemic) [Compound 1]
Q: CCOC(=O)[C@H]1N=C1CCc1ccc(OC)cc1 (single isomer, unassigned) [Chiral isomer (1-1)]
Field: entry with larger Tmax (options P / Q ). API: response body contains the label of the selected item. Q
